// provenance: ChEMBL document CHEMBL3885881

Species: Rattus norvegicus
PROTOCOL_DETAILS: DrugMatrix - Regimen: Daily Repeat
Type: toxicity, organism-based, Sprague-Dawley
Set-up: regimen Daily Repeat, gender Male, age 6-8 weeks
PROTOCOL_CONDITIONS: in vivo, po, 0 mg/kg, 120 h, tissue Plasma, route oral GAVAGE, dose level Control, time 5 day, […]
Could you please report measured TOTAL BILIRUBIN for the items listed next?
Param answer (str): number followed by unit.

For orientation, consider the following solved cases.
Cc1oncc1C(=O)Nc1ccc(C(F)(F)F)cc1 [LEFLUNOMIDE] ... 0.17 mg/dL
O=NN(CCCl)C(=O)NC1CCCCC1 [LOMUSTINE] ... 0.37 mg/dL
Cc1noc(NS(=O)(=O)c2ccc(N)cc2)c1C [SULFISOXAZOLE] ... 0.12 mg/dL
CCC(C)n1ncn(-c2ccc(N3CCN(c4ccc(OCC5COC(Cn6cncn6)(c6ccc(Cl)cc6Cl)O5)cc4)CC3)cc2)c1=O (stereo unspecified) [ITRACONAZOLE] ... 0.13 mg/dL
Cc1ccc(-c2cc(C(F)(F)F)nn2-c2ccc(S(N)(=O)=O)cc2)cc1 [CELECOXIB] ... 0.13 mg/dL

GET /value?item= O=C(O)CCCc1ccc(N(CCCl)CCCl)cc1 [CHLORAMBUCIL] &field=TOTAL BILIRUBIN returns 0.13 mg/dL
